Tested on: SK-OV-3 ovarian
Experiment: NCI tumour cell line growth inhibition, 48 h
quantity.kind: GI50

compound=O=C1NC(=N[C@H](CO)c2ccccc2)S/C1=C\c1ccc2ncccc2c1 study_target="SK-OV-3 ovarian" experimental_value="5.11 µM"
compound=N#Cc1c(N)c(C#N)c2c(c1-c1ccc(Cl)cc1)COc1ccc(F)cc1-2 study_target="SK-OV-3 ovarian" experimental_value="> 50 µM"
compound="CC1(O)COCCCCOc2c(CN)cccc2NC(=O)c2nc(cnc2N)-c2ccc(cc2)S(=O)(=O)C(C)(C)C1 (stereo not drawn)" study_target="SK-OV-3 ovarian" experimental_value="1.37 µM"
compound="CCN1C(=O)N(CC)C2C1NN=c1s/c(=C\\c3ccc(OC)cc3)c(=O)n12 (stereo not drawn)" study_target="SK-OV-3 ovarian" experimental_value="0.267 µM"
compound=Cc1cc(N)cc(C)c1-c1c(Br)cc(N)cc1Br study_target="SK-OV-3 ovarian" experimental_value="3.62 µM"
compound=O=C1NC(=O)C(c2c[nH]c3ccccc23)=C1c1ccccc1 study_target="SK-OV-3 ovarian" experimental_value="> 25 µM"
compound=CC(C)[C@H](C(=O)O[C@@H]1/C=C/C(=O)O[C@@H](C)CCC/C=C/[C@@H]2C[C@H](O)C[C@H]21)N(C)C study_target="SK-OV-3 ovarian" experimental_value="17.9 µM"
compound=Cc1cn2c(/C=C3/C(=O)Nc4ccc(Cl)cc43)c(C)nc2s1 study_target="SK-OV-3 ovarian" experimental_value="0.384 µM"
compound="Cc1cc2c(cc1Cl)SC(C(=O)c1ccc(Cl)c(Cl)c1)NS2(=O)=O (stereo not drawn)" study_target="SK-OV-3 ovarian" experimental_value="33.7 µM"
compound=Oc1cccc(-c2nc(-c3ccccc3)[nH]c2-c2ccncc2)c1 study_target="SK-OV-3 ovarian" experimental_value="9.29 µM"
compound=C[C@H](c1ccccc1)N(CCC(=O)O)C(=O)CCN(C(=O)CCN(C(=O)CCN[C@H](C)c1ccccc1)[C@H](C)c1ccccc1)[C@H](C)c1ccccc1 study_target="SK-OV-3 ovarian" experimental_value="> 100 µM"
compound=CCN(CCO)CCCOc1ccc2c(Nc3cc(CC(=O)Nc4cccc(F)c4)[nH]n3)ncnc2c1 study_target="SK-OV-3 ovarian" experimental_value="15.6 µM"
compound=N[C@@H](CSSC[C@H](N)C(=O)N1CCn2cc(-c3ccccc3)nc2[C@@H]1CC1CCCCC1)C(=O)N1CCn2cc(-c3ccccc3)nc2[C@@H]1CC1CCCCC1 study_target="SK-OV-3 ovarian" experimental_value="1.59 µM"

* * *

Tested on: HCT-116 colon
Test: NCI tumour cell line growth inhibition, 48 h
*1 amine or outer side, *2 acyl side, *3 side chain or, on linkers, in order; H or OH if unused. Where a SMILES comes first, the peptide text is derived from it. [ ]: non-standard residue; d: D form. The star is where a group is joined. Phe(4-NO2) = N[CH](Cc1ccc([N+](=O)[O-])cc1)C(=O)O; γGlu = O=C(O)[CH](CCC(=O)[*:2])N[*:1]; Boc = CC(C)(C)OC(=O)*; NHOH = ON*
Overview of recorded TGI for various compounds
quantity.kind: TGI

compound=COc1ccc(/C=C2\CCc3cc(OC)c(OC)cc3C2=O)cc1 quantity_kind=TGI experimental_value="> 10 µM"
compound="Cc1cccc(C)c1N1C(=O)C2c3[nH]c4ccccc4c3C3CCC(C(C)(C)C)CC3C2C1=O (centres undefined)" quantity_kind=TGI experimental_value="21.3 µM"
compound=O=c1c2ccccc2nc2sc(/N=C/C=C/c3ccccc3)nn12 quantity_kind=TGI experimental_value="> 100 µM"
compound=CN(C)c1ccc(/C=c2/c3ccccc3n3c2cc(NC(=O)NCCC[N+](C)(C)C)[n+]3C)cc1 quantity_kind=TGI experimental_value="> 100 µM"
compound=COc1c(Br)cc(/C=C(\C#N)c2ccccn2)cc1Br quantity_kind=TGI experimental_value="> 100 µM"
compound=CC[C@@]1(O)C(=O)NCc2c1cc1n(c2=O)Cc2cc3c(NC(C)=O)cccc3nc2-1 quantity_kind=TGI experimental_value="> 100 µM"
compound=CNN1C(=O)c2c(C)c(C)c(C#N)c(N)c2C1=O quantity_kind=TGI experimental_value="> 100 µM"
compound="C#CC(O)/C=C/C(O)CCCC(O)CC#CC(O)C#CC(O)CCCC(O)/C=C/CCCCCC(=O)CCCCCCCCCCCCCC(O)C(O)C#CC(=O)O (centres undefined)" quantity_kind=TGI experimental_value="> 50 µM"
compound=COC(=O)[C@]12CC[C@@H](C)[C@H](C)[C@@H]1C1=CC[C@@H]3[C@@]4(C)CC(=O)[C@H](O)[C@@](C)(CO)[C@@H]4C(=O)C[C@@]3(C)[C@]1(C)CC2 quantity_kind=TGI experimental_value="23.3 µM"
compound=CCCc1n(Cc2ccc3ccccc3n2)cc[n+]1Cc1ccc2ccccc2n1 quantity_kind=TGI experimental_value="13.1 µM"
compound=COc1cc(Cn2c(SCC(=O)Nc3ccc(Cl)cc3)nc3ccccc3c2=O)cc(OC)c1OC quantity_kind=TGI experimental_value="14.9 µM"
compound="CC1COCCN1CC#CCOC(=O)c1cc2ccccc2oc1=O (centres undefined)" quantity_kind=TGI experimental_value="> 100 µM"
compound="CCOC(=O)CNC(=O)C(CCC(=O)NO)NC(=O)CCC(N)C(=O)O (centres undefined) (γGlu-Glu(NHOH)-Gly-OEt; configuration not given here)" quantity_kind=TGI experimental_value="> 100 µM"
compound=OCc1ccc(N(Cc2ccc(F)cc2)CC2CCC2)cc1Cl quantity_kind=TGI experimental_value="11.5 µM"
compound=FC(F)(F)c1ccc(NCc2nc3ccccc3[nH]2)cc1 quantity_kind=TGI experimental_value="68.7 µM"
compound=O=C(Nc1ccccc1)Nc1ccc(Cl)c(Cl)c1 quantity_kind=TGI experimental_value="> 100 µM"
compound="CC(=O)O[C@H]1C(=O)[C@@]2(C)C(C(OC(=O)c3ccccc3)[C@]3(O)CC(OC(=O)C(O)C(NC(=O)c4ccccc4)c4cccc(Cl)c4)C(C)=C1C3(C)C)[C@]1(OC(C)=O)CO[C@@H]1C[C@@H]2O (some centres undefined)" quantity_kind=TGI experimental_value="> 10 µM"
compound=Cc1cc2c(cc1Cl)N1C(=O)NS(=O)(=O)N=C1NS2(=O)=O quantity_kind=TGI experimental_value="> 100 µM"
compound="ClCCCCOC1CCCCO1 (centres undefined)" quantity_kind=TGI experimental_value="> 100 µM"
compound=N=C1C(c2nc3ccccc3s2)=C(O)CN1c1cc(Cl)cc(Cl)c1 quantity_kind=TGI experimental_value="> 100 µM"
compound=CS(=O)(=O)OCCN(CCOS(C)(=O)=O)c1ccc(/C=N/Nc2ncnc3nc[nH]c23)cc1 quantity_kind=TGI experimental_value="59.9 µM"
compound=Clc1ccc(-c2nc3ccc4ccccc4c3c3c2CCCC3)cc1 quantity_kind=TGI experimental_value="> 100 µM"
compound="CC1CC(Br)C(=O)O1 (centres undefined)" quantity_kind=TGI experimental_value="> 100 µM"
compound=Cc1c/c(=N/NC(=O)c2ccncc2)n2nc(N)sc2n1 quantity_kind=TGI experimental_value="> 100 µM"
compound="O=C1OC2(OC2c2ccc(Cl)cc2)c2ccccc21 (centres undefined)" quantity_kind=TGI experimental_value="> 100 µM"
compound=Cc1cc2cc3ccccc3cc2c(=O)[nH]1 quantity_kind=TGI experimental_value="> 10 µM"
compound="N#CC1C(=O)NC(=O)C1=O (centres undefined)" quantity_kind=TGI experimental_value="> 100 µM"
compound="COC(=O)C1(C)CCCC2(C)c3cc(OC)ccc3C(=O)C(Br)C12 (centres undefined)" quantity_kind=TGI experimental_value="7.23 µM"
compound=CSc1ccc(/C=C2\N=C(c3ccccc3)N(/N=C3\C(=O)Nc4ccccc43)C2=O)cc1 quantity_kind=TGI experimental_value="> 100 µM"
compound="COC(=O)CCC(NC(=O)OC(C)(C)C)C(=O)NC(Cc1ccc([N+](=O)[O-])cc1)C(=O)NC(CCC(=O)OC)C(=O)OC (centres undefined) (Boc-Glu(OMe)-[Phe(4-NO2)]-Glu(OMe)-OMe; configuration not given here)" quantity_kind=TGI experimental_value="> 100 µM"
compound=O=C(CSc1nc2ccc(I)cc2c(=O)n1Cc1ccccc1)NN1C(=O)c2ccccc2C1=O quantity_kind=TGI experimental_value="> 100 µM"
compound=COc1cccc(/C=C\c2ccnc3ccccc23)c1 quantity_kind=TGI experimental_value="> 10 µM"
compound=C=C(CO)[C@H]1Oc2ccc(C(C)=O)cc2[C@@H]1O quantity_kind=TGI experimental_value="> 100 µM"
compound=N#Cc1ccc(/C=C/C(=O)c2ccccc2)cc1 quantity_kind=TGI experimental_value="3.17 µM"
compound=NCCNCCCNC(=O)c1cc(-c2ccccc2)nc2ccccc12 quantity_kind=TGI experimental_value="> 100 µM"
compound="CC(C)COC(c1ccc2c(c1)OCO2)C(C)Br (centres undefined)" quantity_kind=TGI experimental_value="38.7 µM"
compound=CC(C)[C@H](C(=O)O[C@@H]1/C=C/C(=O)O[C@@H](C)CCC/C=C/[C@@H]2C[C@H](O)C[C@H]21)N(C)C quantity_kind=TGI experimental_value="37.2 µM"
compound="COC(=O)/C(=N/NC(C)(C)C)C(C(=O)OC)C(=O)C(=O)Nc1nc2ccc([N+](=O)[O-])cc2s1 (centres undefined)" quantity_kind=TGI experimental_value="> 100 µM"
compound=O=C1/C(=C/c2ccccc2[N+](=O)[O-])COc2ccc(O)c(O)c21 quantity_kind=TGI experimental_value="1.1 µM"
